- Tested on: LOX IMVI melanoma
- EXPERIMENTAL DETAILS: NCI tumour cell line growth inhibition, 48 h
MEASUREMENT KIND: TGI

Example cases with answers are listed next.
[
  {
    "COMPOUND": "CC(C)(C)OC(=O)NCCCCC(NC(=O)c1ccccc1)C(N)=O (centres undefined)",
    "TGI": "> 100 µM"
  },
  {
    "COMPOUND": "Cn1c(-c2c(N)n(CCCN3CCOCC3)c3nc(C#N)c(C#N)nc23)nc2ccccc21",
    "TGI": "> 52.5 µM"
  },
  {
    "COMPOUND": "CC1C(c2ccc(Cl)cc2)c2cc3c(cc2OC1N1CCOCC1)OCO3 (centres undefined)",
    "TGI": "> 100 µM"
  },
  {
    "COMPOUND": "COc1ccc(/C=C/C(=O)c2sc(-n3nc(-c4ccccc4)cc3-c3ccccc3)nc2C)cc1",
    "TGI": "> 100 µM"
  },
  {
    "COMPOUND": "Cn1nc(-c2ccccc2)c2c(/C=C/c3ccccc3)onc2c1=O",
    "TGI": "> 100 µM"
  },
  {
    "COMPOUND": "COC(=O)c1ccc(NC(=O)Oc2ccc(N(CCCl)CCCl)cc2)cc1",
    "TGI": "> 100 µM"
  },
  {
    "COMPOUND": "COc1cc2nc(-c3cccs3)[nH]c(=O)c2cc1OC",
    "TGI": "> 100 µM"
  },
  {
    "COMPOUND": "CC(C)C1N(C)c2ccc(Cl)cc2[C@H]2c3ccccc3CCN12 (some centres undefined)",
    "TGI": "55.7 µM"
  }
]

Could I get TGI for every one of these entries?
1. COc1ccc(/C=C/C2=NN(c3cccc(S(=O)(=O)O)c3)C3(C2)SCC(=O)N3c2nc3ccccc3s2)cc1 (centres undefined)
2. O=C1NC(=NCCCc2ccccc2)S/C1=C\c1ccc2ncccc2c1

1. > 100 µM
2. 14.6 µM

* * *

- Test system: K-562 leukemia
- EXPERIMENTAL DETAILS: NCI tumour cell line growth inhibition, 48 h
MEASUREMENT KIND: TGI

[
  {
    "COMPOUND": "CC(=O)NC(CC(C)C)C(=O)NC(Cc1ccccc1)C(=S)N1CCCC1 (configuration not stated)",
    "SYSTEM TESTED": "K-562 leukemia",
    "TGI": "> 100 µM"
  },
  {
    "COMPOUND": "CCOC(=O)C1=C(C)N(c2ccc(OC)cc2)C2(O)C=CC(=O)C3=C(O)c4ccccc4C(=O)C312 (configuration not stated)",
    "SYSTEM TESTED": "K-562 leukemia",
    "TGI": "39.5 µM"
  },
  {
    "COMPOUND": "C[N+]1(CCN[N+]2(C)CCCCC2)CCc2ccccc2C1 (configuration not stated)",
    "SYSTEM TESTED": "K-562 leukemia",
    "TGI": "> 100 µM"
  },
  {
    "COMPOUND": "O=c1[nH]cnc2c1nnn2CCCCCCCCCCCCn1nnc2c(=O)[nH]cnc21",
    "SYSTEM TESTED": "K-562 leukemia",
    "TGI": "> 100 µM"
  },
  {
    "COMPOUND": "CC(=N\\N)/C(C)=N/N=C(C)/C(C)=N/N=C(C)/C(C)=N/N",
    "SYSTEM TESTED": "K-562 leukemia",
    "TGI": "> 100 µM"
  },
  {
    "COMPOUND": "CN1CCN(CCCOc2cccc3nc(Nc4ccc(Cl)c(C(F)(F)F)c4)ccc23)CC1",
    "SYSTEM TESTED": "K-562 leukemia",
    "TGI": "3.34 µM"
  }
]

Now for the compound whose TGI we want.
K-562 leukemia / TGI / `CC(C)(C)C(C#N)(C#N)c1ccc(C(C#N)(C#N)C(C)(C)C)nn1` : value?
> 100 µM

* * *

- System: UACC-62 melanoma
- EXPERIMENTAL DETAILS: NCI tumour cell line growth inhibition, 48 h
Answer each item with its documented GI50.

[
  {
    "COMPOUND": "CO[C@H]1C[C@@H]2CC[C@@H](C)[C@@](O)(O2)C(=O)C(=O)N2CCCC[C@H]2C(=O)O[C@H]([C@H](C)C[C@@H]2CC[C@@H](OCCO)[C@H](OC)C2)CC(=O)[C@H](C)C=C(C)[C@@H](O)[C@@H](OC)C(=O)[C@H](C)C[C@H](C)/C=C/C=C/C=C1C",
    "GI50": "342 nM"
  }
]

Could I get GI50 for every one of these entries?
1. c1cc2c(cn1)Nc1ccncc1S2
2. CN(Cc1cnc2nc(N)nc(N)c2n1)c1ccc(C(=O)NC(CCC(=O)O)C(=O)O)cc1Br (centres undefined)
3. COC(=O)[C@H]1CCCN1C(=O)[C@H]1CCCN1C(=O)[C@H](Cc1c[nH]c2ccccc12)NC(=S)Nc1cc(C(F)(F)F)cc(C(F)(F)F)c1
4. N#CC1c2ccccc2C=CN1C(=O)N(c1ccccc1)c1ccccc1 (centres undefined)
5. COc1ccc(/C(C#N)=C2C=C/C(=N/O)c3ccccc3\2)cc1
6. CN1CSC(=S)N(Cc2ccccc2)C1
7. Cc1nc2ccccc2c(/C=C/c2ccc(Cl)cc2)c1C(=O)/C=C/c1ccc(Cl)cc1

1: 41900 nM; 2: < 10 nM; 3: 6140 nM; 4: 2130 nM; 5: 480 nM; 6: 13400 nM; 7: 1590 nM

What does the record list as GI50 for `CCCCCCC[CH2][Sn]1([CH2]CCCCCCC)[O]C(=O)c2cccnc2[O]1` ?
> 100000 nM

* * *

- System: 786-0 renal
- EXPERIMENTAL DETAILS: NCI tumour cell line growth inhibition, 48 h
Answer each item with its documented TGI.
Answers are plain numbers, in µM.

[
  {
    "MOL SMILES": "C/C1=C\\C=C(\\C(C)C)CC/C(C(=O)O)=C\\CC/C(C)=C/CC1",
    "MEASUREMENT KIND": "TGI",
    "NUMERIC VALUE": 65.9
  },
  {
    "MOL SMILES": "O=C(NC(=S)NC(=O)c1cc(O)c(O)c(O)c1)c1cc(O)c(O)c(O)c1",
    "MEASUREMENT KIND": "TGI",
    "NUMERIC VALUE": 40.2
  }
]

Now for the compound whose TGI we want.
What does the record list as TGI for `CCOC(=O)Oc1ccc2c(c1)c(=O)c1c(NCCN(CC)CC)ccc3nnn2c31` ?
13

* * *

- System: U251 CNS
- EXPERIMENTAL DETAILS: NCI tumour cell line growth inhibition, 48 h
Answer each item with its documented TGI.
One number for each entry, in µM.

[
  {
    "MOLECULE": "C=CC(=O)N1CC2(CC(n3nc(-c4ccc5c(cnn5C)c4)c(-c4c(Cl)c(C)cc5[nH]ncc45)c3C)C2)C1",
    "VALUE UNIT": "µM",
    "TGI": 4.07
  },
  {
    "MOLECULE": "N=c1c2c(=N)n3c(nc2nc2n1-c1ccccc1Sc1ccccc1-2)sc1cc(Cl)ccc13",
    "VALUE UNIT": "µM",
    "TGI": 6.79
  },
  {
    "MOLECULE": "O=[N+]([O-])c1ccc(O)c(/C=N/NC(=S)N2CCCCC2)c1",
    "VALUE UNIT": "µM",
    "TGI": 90.3
  }
]

Could I get TGI for every one of these entries?
1. Clc1ccc(OCc2nn3c(CCc4nnc5sc(COc6ccc(Cl)cc6)nn45)nnc3s2)cc1
2. O=C(COc1cccc(/C=C2\CSc3ccccc3C2=O)c1)Nc1nccs1
3. O=C(NNc1nc(-c2ccccc2)cs1)C(F)(F)F
4. O=c1[nH]cnc2c1nnn2CCCCCCCCCCCCn1nnc2c(=O)[nH]cnc21

54.6
3.21
98.7
52.8

Could I get TGI for every one of these entries?
1. CCOC(=O)Oc1ccc2c(c1)c(=O)c1c(NCCN(CC)CC)ccc3nnn2c31
2. COc1cc(-c2ccccc2N)c2cccnc2c1OC
3. COc1cccc(/C=C2\COc3ccc(-c4ccccc4)cc3C2=O)c1
4. CCc1nc2ccc(NCCN(C)C)c3c(=O)c4ccccc4n1c23
5. O=C(NC(=S)NC(=O)c1cc(O)c(O)c(O)c1)c1cc(O)c(O)c(O)c1
6. C/C1=C\C=C(\C(C)C)CC/C(C(=O)O)=C\CC/C(C)=C/CC1
7. C[C@H](C/C=C/C(C)(C)O)[C@H]1CC[C@@]2(C)[C@@H]3CC[C@H]4C(C)(C)[C@@H](O)CC[C@@]45C[C@@]35CC[C@]12C
8. CN1CSC(=S)N(Cc2ccccc2)C1

1: 17; 2: 17.7; 3: 3.05; 4: 12.1; 5: 84.9; 6: 30.5; 7: 53.8; 8: 30.2

Could I get TGI for every one of these entries?
1. CC1CC(=O)N(N(C)C)C(C#N)(C#N)C1(C#N)C#N (centres undefined)
2. N#CC1c2ccccc2C=CN1C(=O)N(c1ccccc1)c1ccccc1 (centres undefined)
3. CC(=O)[CH-]C(=O)c1ccccc1.CC(=O)[CH-]C(=O)c1ccccc1.C[C@]12CCC(=O)C=C1CC[C@@H]1C2CC[C@@]2(C)C1CC[C@]2(C)[O-].C[C@]12CCC(=O)C=C1CC[C@@H]1C2CC[C@@]2(C)C1CC[C@]2(C)[O-].Cl.[Ti+4] (some centres undefined)
4. CCc1ccccc1NNc1cc(=O)[nH]c(=O)[nH]1

1: 42.4; 2: 19.3; 3: 54.2; 4: 31.2

What does the record list as TGI for `CO[C@H]1C[C@@H]2CC[C@@H](C)[C@@](O)(O2)C(=O)C(=O)N2CCCC[C@H]2C(=O)O[C@H]([C@H](C)C[C@@H]2CC[C@@H](OCCO)[C@H](OC)C2)CC(=O)[C@H](C)C=C(C)[C@@H](O)[C@@H](OC)C(=O)[C@H](C)C[C@H](C)/C=C/C=C/C=C1C` ?
18.1
